System: Hs-578T
Test: Growth inhibition of human Hs-578T cells measured after 48 hrs by SRB assay
Type: functional
For each record, check the reported GI50: if it is below 400 nM write 1, else write -1.

Reference set, count: 5
CC(=O)OC[C@H]1O[C@@H](O[C@@H]2C=C3CC[C@@H]4[C@H](C(=O)C[C@]5(C)[C@@H](c6ccc(=O)oc6)CC[C@]45O)[C@@]3(C)CC2)[C@H](OC(C)=O)[C@@H](OC(C)=O)[C@@H]1OC(C)=O = -1
C[C@]12C[C@H](O)[C@H]3[C@@H](CCC4=C[C@@H](O[C@@H]5O[C@H](CO)[C@@H](O)[C@H](O)[C@H]5O)CC[C@@]43CO)[C@@]1(O)CC[C@@H]2c1ccc(=O)oc1 = 1
CCO[C@@H]1C=C2CC[C@@H]3[C@H]([C@@H](O)C[C@]4(C)[C@@H](c5ccc(=O)oc5)CC[C@]34O)[C@@]2(C)CC1 = 1
C[C@]12CC[C@@H](O)C=C1CC[C@@H]1[C@@H]2[C@@H](O)C[C@]2(C)[C@@H](c3ccc(=O)oc3)CC[C@]12O = -1
C[C@]12CC[C@H](O)C=C1CC[C@@H]1[C@@H]2[C@@H](O)C[C@]2(C)[C@@H](c3ccc(=O)oc3)CC[C@]12O = 1

Could you now consider this next molecule?
QUERY: Regarding CCO[C@H]1C=C2CC[C@@H]3[C@H]([C@@H](O)C[C@]4(C)[C@@H](c5ccc(=O)oc5)CC[C@]34O)[C@@]2(C)CC1 , kindly confirm whether its GI50 is beneath 400 nM.
RESULT: 1

----------
Would you kindly list GI50 for each of these compounds?
Test system: Malme-3M
Assay: Growth inhibition of human Malme-3M cells measured after 48 hrs by SRB assay
Format: functional
Answers are plain numbers, in nM.

C[C@]12CC[C@@H](O)C=C1CC[C@@H]1[C@@H]2[C@@H](O)C[C@]2(C)[C@@H](c3ccc(=O)oc3)CC[C@]12O = 4350

Lab note: each compound below needs its GI50 filled in.
1. C[C@]12CC[C@H](O[C@@H]3O[C@H](CO)[C@@H](O)[C@H](O)[C@H]3O)C=C1CC[C@@H]1[C@@H]2[C@@H](O)C[C@]2(C)[C@@H](c3ccc(=O)oc3)CC[C@]12O
2. CCO[C@@H]1C=C2CC[C@@H]3[C@H]([C@@H](O)C[C@]4(C)[C@@H](c5ccc(=O)oc5)CC[C@]34O)[C@@]2(C)CC1
3. CC(=O)OC[C@H]1O[C@@H](O[C@@H]2C=C3CC[C@@H]4[C@H]([C@@H](O)C[C@]5(C)[C@@H](c6ccc(=O)oc6)CC[C@]45O)[C@@]3(C)CC2)[C@H](OC(C)=O)[C@@H](OC(C)=O)[C@@H]1OC(C)=O
4. CCO[C@H]1C=C2CC[C@@H]3[C@H]([C@@H](O)C[C@]4(C)[C@@H](c5ccc(=O)oc5)CC[C@]34O)[C@@]2(C)CC1
5. C[C@]12C[C@H](O)[C@H]3[C@@H](CCC4=C[C@@H](O[C@@H]5O[C@H](CO)[C@@H](O)[C@H](O)[C@H]5O)CC[C@@]43CO)[C@@]1(O)CC[C@@H]2c1ccc(=O)oc1
6. CC(=O)OC[C@H]1O[C@@H](O[C@@H]2C=C3CC[C@@H]4[C@H](C(=O)C[C@]5(C)[C@@H](c6ccc(=O)oc6)CC[C@]45O)[C@@]3(C)CC2)[C@H](OC(C)=O)[C@@H](OC(C)=O)[C@@H]1OC(C)=O

RESULT:
63
145
105
1800
17
9730

Below are 2 compounds. Give each one its GI50.
1. C[C@]12CC[C@H]3[C@@H](CC[C@H]4C[C@@H](O)CC[C@@]43C=O)[C@@]1(O)CC[C@@H]2c1ccc(=O)oc1
2. C[C@]12CC[C@H](O)C=C1CC[C@@H]1[C@@H]2[C@@H](O)C[C@]2(C)[C@@H](c3ccc(=O)oc3)CC[C@]12O

RESULT:
3470
1260

----------
So I've got a bunch of molecules here, and I need their log10 of GI50 values.
Tested on: HCC 2998
Assay: Growth inhibition of human HCC 2998 cells measured after 48 hrs by SRB assay
Assay type: functional
Values below are the log10 of the recorded GI50, with µM as the unit.

Observe how each entry below is paired with its result.
C[C@]12CC[C@H]3[C@@H](CC[C@H]4C[C@@H](O)CC[C@@]43C=O)[C@@]1(O)CC[C@@H]2c1ccc(=O)oc1 = 0.94
CC(=O)OC[C@H]1O[C@@H](O[C@@H]2C=C3CC[C@@H]4[C@H]([C@@H](O)C[C@]5(C)[C@@H](c6ccc(=O)oc6)CC[C@]45O)[C@@]3(C)CC2)[C@H](OC(C)=O)[C@@H](OC(C)=O)[C@@H]1OC(C)=O = -0.17
C[C@]12CC[C@H](O)C=C1CC[C@@H]1[C@@H]2[C@@H](O)C[C@]2(C)[C@@H](c3ccc(=O)oc3)CC[C@]12O = 0.64

// each molecule listed below needs its log10 of GI50
1. CCO[C@H]1C=C2CC[C@@H]3[C@H]([C@@H](O)C[C@]4(C)[C@@H](c5ccc(=O)oc5)CC[C@]34O)[C@@]2(C)CC1
2. CCO[C@@H]1C=C2CC[C@@H]3[C@H]([C@@H](O)C[C@]4(C)[C@@H](c5ccc(=O)oc5)CC[C@]34O)[C@@]2(C)CC1

RESULT:
[0.65, -0.27]

----------
Kindly supply the reported GI50 values for the records listed here.
System: NCI/ADR-RES
Assay: Growth inhibition of human NCI/ADR-RES cells measured after 48 hrs by SRB assay
Type: functional

CCO[C@H]1C=C2CC[C@@H]3[C@H]([C@@H](O)C[C@]4(C)[C@@H](c5ccc(=O)oc5)CC[C@]34O)[C@@]2(C)CC1 = 1610 nM
CC(=O)OC[C@H]1O[C@@H](O[C@@H]2C=C3CC[C@@H]4[C@H](C(=O)C[C@]5(C)[C@@H](c6ccc(=O)oc6)CC[C@]45O)[C@@]3(C)CC2)[C@H](OC(C)=O)[C@@H](OC(C)=O)[C@@H]1OC(C)=O = > 10000 nM
C[C@]12C[C@H](O)[C@H]3[C@@H](CCC4=C[C@@H](O[C@@H]5O[C@H](CO)[C@@H](O)[C@H](O)[C@H]5O)CC[C@@]43CO)[C@@]1(O)CC[C@@H]2c1ccc(=O)oc1 = 8 nM

Field: GI50. Fill in for each record below.
1. C[C@]12CC[C@@H](O)C=C1CC[C@@H]1[C@@H]2[C@@H](O)C[C@]2(C)[C@@H](c3ccc(=O)oc3)CC[C@]12O
2. C[C@]12CC[C@H](O[C@@H]3O[C@H](CO)[C@@H](O)[C@H](O)[C@H]3O)C=C1CC[C@@H]1[C@@H]2[C@@H](O)C[C@]2(C)[C@@H](c3ccc(=O)oc3)CC[C@]12O
3. CCO[C@@H]1C=C2CC[C@@H]3[C@H]([C@@H](O)C[C@]4(C)[C@@H](c5ccc(=O)oc5)CC[C@]34O)[C@@]2(C)CC1

RESULT:
2230 nM
33 nM
91 nM

----------
Tested on: TK-10
Test: Growth inhibition of human TK-10 cells measured after 48 hrs by SRB assay
Format: functional
Could you please report measured GI50 for the items listed next?
One number for each entry, in nM.

Please look at the items below and tell me GI50 for each one, in order.
1. C[C@]12CC[C@H](O[C@@H]3O[C@H](CO)[C@@H](O)[C@H](O)[C@H]3O)C=C1CC[C@@H]1[C@@H]2[C@@H](O)C[C@]2(C)[C@@H](c3ccc(=O)oc3)CC[C@]12O
2. CC(=O)OC[C@H]1O[C@@H](O[C@@H]2C=C3CC[C@@H]4[C@H]([C@@H](O)C[C@]5(C)[C@@H](c6ccc(=O)oc6)CC[C@]45O)[C@@]3(C)CC2)[C@H](OC(C)=O)[C@@H](OC(C)=O)[C@@H]1OC(C)=O

RESULT:
31
128

----------
Tested on: HOP-92
Experiment: Growth inhibition of human HOP-92 cells measured after 48 hrs by SRB assay
Type: functional
quantity_kind: GI50 (nM)
Give bare numbers, in nM.

CCO[C@@H]1C=C2CC[C@@H]3[C@H]([C@@H](O)C[C@]4(C)[C@@H](c5ccc(=O)oc5)CC[C@]34O)[C@@]2(C)CC1 = 153

Consider the record given below.
QUERY: Sample C[C@]12C[C@H](O)[C@H]3[C@@H](CCC4=C[C@@H](O[C@@H]5O[C@H](CO)[C@@H](O)[C@H](O)[C@H]5O)CC[C@@]43CO)[C@@]1(O)CC[C@@H]2c1ccc(=O)oc1 — what was its GI50?
RESULT: 22
